# Tested on: Fusobacterium nucleatum
# ASSAY OVERVIEW: Inhibition of Fusobacterium nucleatum ATCC 25586 recombinant MGL R373K mutant expressed in Escherichia coli BL21 (DE3) assessed as decrease in signal intensity by measuring recovery ratio by 19F NMR based competition assay relative to wild type
# Parameters: concentration or dose not given beside the values
Active and inactive are the calls of the source. No cut-off for these calls is given here.
MEASURED ENDPOINT: Activity

Completed entries (count: 6):
MOLECULE	ASSAYED SYSTEM	Activity
O=C(O)c1cn(-c2cccc(F)c2)cn1	Fusobacterium nucleatum	inactive
COCCOc1ccc(C(=O)O)cc1C(F)(F)F	Fusobacterium nucleatum	50%
Cc1ccc2[nH]cc(C(C(=O)O)C(F)(F)F)c2c1 (configuration not stated)	Fusobacterium nucleatum	Active
CC(C)(C)OC(=O)N1CCC(CN)(Cc2ccc(C(F)(F)F)cc2)CC1	Fusobacterium nucleatum	Active
O=C(O)c1ccc(OCC(F)(F)F)cn1	Fusobacterium nucleatum	Active
CC(C)(C)OC(=O)N1CCC(CN)(Cc2ccc(F)cc2)CC1	Fusobacterium nucleatum	Active

I'm hoping you can list Activity for every molecule here, please.
1. CC(C)(C)OC(=O)N1CCC(CN)(c2ccccc2F)CC1
2. Cc1cccc2c(C(C(=O)O)C(F)(F)F)c[nH]c12 (configuration not stated)
3. CC(C)(C)OC(=O)N1CCC(C(=O)O)(c2ccc(C(F)(F)F)cc2)CC1
4. CC(C)(Cc1ccc(C(F)(F)F)cc1)C(=O)O
5. O=C(O)c1cc(C(F)(F)F)nn1-c1ccccc1

Data returned:
1. Active
2. Active
3. Active
4. inactive
5. Active

Data request: Reported Activity for Fusobacterium nucleatum, given CC(C)(C)OC(=O)N[C@H]1CC[C@H](N2Cc3cccc(F)c3C2=O)CC1 ?
Data returned: Active
